Tested on: AsPC-1/Cas9 cell line
assayOverview: AsPC-1/Cas9 growth inhibition assay
Format: cell-based, human
testConditions: AsPC-1/Cas9 cells, 5 days culture, CellTiter Glo 2.0; read-out: Absolute IC50—Day 5 (nM) AsPC-1 Cas9
Assign IC50 to each entry below.
Could you give me the number in nM? Just the number is fine.

So for COc1ccc(C#CCNC2(C)CCN(C3CCN(c4nc(C(CO)(OC5CC5)c5ccccc5)c5cc(-c6cn(C)c(=O)c7[nH]ccc67)ccc5n4)CC3)CC2)cc1N1CCC(=O)NC1=O (stereo in doubt) [Example 145] , the logged IC50 turned out to be 0.18

So for COc1ccc(C#CCNC2(C)CCN(C3CCN(c4nc([C@@](CO)(OC5CC5)c5ccccc5)c5cc(-c6cn(C)c(=O)c7[nH]ccc67)ccc5n4)CC3)CC2)cc1N1CCC(=O)NC1=O [Example 101] , the logged IC50 turned out to be 0.087
